Molecular target: human ORL1 receptor (Homo sapiens, UniProt P41146)
Construct: purchased PerkinElmer; host or cells: HEK-293 cells transfected with human ORL1 receptor (membranes)
Sequence (P41146 whole entry): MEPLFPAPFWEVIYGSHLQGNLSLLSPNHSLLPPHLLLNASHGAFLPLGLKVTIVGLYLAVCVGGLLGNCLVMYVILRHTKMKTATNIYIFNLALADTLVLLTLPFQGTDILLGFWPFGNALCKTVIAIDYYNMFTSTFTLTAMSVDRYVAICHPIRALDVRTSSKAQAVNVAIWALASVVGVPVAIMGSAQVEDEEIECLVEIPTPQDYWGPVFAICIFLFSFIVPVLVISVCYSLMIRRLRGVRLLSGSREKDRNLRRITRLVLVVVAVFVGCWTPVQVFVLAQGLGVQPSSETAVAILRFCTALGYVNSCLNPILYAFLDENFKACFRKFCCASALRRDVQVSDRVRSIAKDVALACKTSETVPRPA
Experiment: ORL1-Receptor Binding Assay
Conditions: Ki, [3H]nociceptin, human ORL1 receptor transfected HEK-293 cell membranes
Structures can show the parent of a compound that is named as a salt.
OUTCOME MEASURE: Ki

> print(dat)
                                   molecule                            assayed.system  outcome.measure  observed
1  CN(C)C(=O)C(Cc1cscn1)CN1C2CCC1CC1(C2)OCc2ccccc21 (stereo not shown) [Example 1, CITRATE]  human ORL1 receptor (Homo sapiens, UniProt P41146)               Ki    1.8 nM
